# protocol_details: Percentage unbound in cynomolgus monkey plasma at 1 uM after 5 hrs by equilibrium dialysis
# Type: ADME, cell-free, Macaca fascicularis
reported_endpoint: fraction unbound at 5 h, 1 µM

Data request, read-out fraction unbound at 5 h, 1 µM, for O=C(c1ccc(F)c(F)c1N[14c]1[14cH][14cH][14c](I)[14cH][14c]1F)N1CC(O)([C@@H]2CCCCN2)C1
0.045

====

# system_under_test: Albumin (Homo sapiens)
# Sequence (P02768 whole entry): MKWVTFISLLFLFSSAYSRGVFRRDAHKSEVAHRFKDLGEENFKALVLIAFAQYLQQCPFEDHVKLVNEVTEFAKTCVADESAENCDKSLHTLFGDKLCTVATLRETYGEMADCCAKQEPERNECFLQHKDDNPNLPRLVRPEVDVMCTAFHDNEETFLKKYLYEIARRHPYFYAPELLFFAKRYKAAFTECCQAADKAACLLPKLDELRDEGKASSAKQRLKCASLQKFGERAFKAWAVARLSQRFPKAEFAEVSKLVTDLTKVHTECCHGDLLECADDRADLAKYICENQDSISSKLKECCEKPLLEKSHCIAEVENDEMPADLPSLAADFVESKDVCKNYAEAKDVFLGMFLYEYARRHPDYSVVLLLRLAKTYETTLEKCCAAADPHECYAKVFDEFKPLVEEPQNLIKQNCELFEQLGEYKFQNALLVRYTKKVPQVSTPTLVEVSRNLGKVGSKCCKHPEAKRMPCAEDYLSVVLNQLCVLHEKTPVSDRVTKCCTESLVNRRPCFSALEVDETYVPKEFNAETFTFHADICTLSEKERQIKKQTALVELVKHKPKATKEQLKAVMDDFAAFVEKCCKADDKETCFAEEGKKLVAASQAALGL
# protocol_details: Percentage unbound in human serum albumin at 5 uM after 5 hrs by equilibrium dialysis
# Format: ADME
reported_endpoint: fraction unbound at 5 h, 5 µM
One number for each entry.

Endpoint output: fraction unbound at 5 h, 5 µM of O=C(c1ccc(F)c(F)c1N[14c]1[14cH][14cH][14c](I)[14cH][14c]1F)N1CC(O)([C@@H]2CCCCN2)C1 . Value?
0.408

====

# protocol_details: Oral bioavailability in Beagle dog at 3 mg/kg by LC-MS/MS analysis
# Type: ADME, organism-based, Canis lupus familiaris
# run_conditions: in vivo
reported_endpoint: bioavailability (%)
Give bare numbers, in %.

Reported bioavailability, compound O=C(c1ccc(F)c(F)c1Nc1ccc(I)cc1F)N1CC(O)([C@@H]2CCCCN2)C1 : ____
69.1

====

# protocol_details: Terminal half life in nu/nu mouse at 1 mg/kg, iv by LC-MS/MS analysis
# Type: ADME, organism-based
# Design: dose 1 mg/kg, route intravenous
# run_conditions: in vivo, read-out: beta t1/2 (converted)
reported_endpoint: half-life (h)
One number for each entry, in h.

Name the recorded half-life for O=C(c1ccc(F)c(F)c1Nc1ccc(I)cc1F)N1CC(O)([C@@H]2CCCCN2)C1 [COBIMETINIB] .
3.92

====

# system_under_test: Albumin (Homo sapiens)
# protocol_details: Percentage unbound in human serum albumin at 1 uM after 5 hrs by equilibrium dialysis
# Type: ADME
reported_endpoint: fraction unbound at 5 h, 1 µM
One number for each entry.

Which measured fraction unbound at 5 h, 1 µM value corresponds to O=C(c1ccc(F)c(F)c1N[14c]1[14cH][14cH][14c](I)[14cH][14c]1F)N1CC(O)([C@@H]2CCCCN2)C1 ?
0.469

====

# protocol_details: Ratio of drug level in blood to plasma in CD1 mouse at 5 uM after 30 mins
# Assay type: ADME
reported_endpoint: blood plasma ratio at 0.5 h, 5 µM
Answers are plain numbers.

I would be grateful if you could share the reported blood plasma ratio at 0.5 h, 5 µM for O=C(c1ccc(F)c(F)c1N[14c]1[14cH][14cH][14c](I)[14cH][14c]1F)N1CC(O)([C@@H]2CCCCN2)C1 .
1.19

====

# protocol_details: Ratio of drug level in blood to plasma in CD1 mouse at 1 uM after 30 mins
# Assay type: ADME
reported_endpoint: blood plasma ratio at 0.5 h, 1 µM
Give bare numbers.

Recorded blood plasma ratio at 0.5 h, 1 µM of O=C(c1ccc(F)c(F)c1N[14c]1[14cH][14cH][14c](I)[14cH][14c]1F)N1CC(O)([C@@H]2CCCCN2)C1 , please.
1.16

====

# protocol_details: Percentage unbound in dog plasma at 10 uM after 5 hrs by equilibrium dialysis
# Type: ADME, cell-free, Canis lupus familiaris
reported_endpoint: fraction unbound at 5 h, 10 µM
Answers are plain numbers.

Need fraction unbound at 5 h, 10 µM, item O=C(c1ccc(F)c(F)c1N[14c]1[14cH][14cH][14c](I)[14cH][14c]1F)N1CC(O)([C@@H]2CCCCN2)C1
0.014
